assay: Hemolytic activity in sheep erythrocytes incubated for 1 hr by absorbance based analysis; type: toxicity, cell-based, Ovis aries, Erythrocyte
MEASURE_NAME: HC50 at 1 h

Here is how some compounds turned out for HC50 at 1 h.
- COMPOUND: "COc1cc(OCCCN2CCCC(C)C2)c(CC=C(C)C)c2c1C(=O)CC(c1ccc(OCCCN3CCCC(C)C3)cc1)O2 (configuration not stated)"
  RESULT: "> 1280 µg/mL"
- COMPOUND: "COc1cc(OCCCN2CCOCC2)c(CC=C(C)C)c2c1C(=O)CC(c1ccc(OCCCN3CCOCC3)cc1)O2 (configuration not stated)"
  RESULT: "> 1280 µg/mL"
- COMPOUND: "COc1cc(OCCCCCN2CCCC(C)C2)c(CC=C(C)C)c2c1C(=O)CC(c1ccc(OCCCCCN3CCCC(C)C3)cc1)O2 (configuration not stated)"
  RESULT: "211 µg/mL"
- COMPOUND: "COc1cc(OCCCCCN2CCN(C)CC2)c(CC=C(C)C)c2c1C(=O)CC(c1ccc(OCCCCCN3CCN(C)CC3)cc1)O2 (configuration not stated)"
  RESULT: "> 1280 µg/mL"
- COMPOUND: "COc1cc(OCCCCN2CCCCC2C)c(CC=C(C)C)c2c1C(=O)CC(c1ccc(OCCCCN3CCCCC3C)cc1)O2 (configuration not stated)"
  RESULT: "275 µg/mL"

Could you tell me HC50 at 1 h for each of these compounds? They are listed below.
1. COc1cc(OCCCCCN2CCC(C)CC2)c(CC=C(C)C)c2c1C(=O)CC(c1ccc(OCCCCCN3CCC(C)CC3)cc1)O2 (configuration not stated)
2. COc1cc(OCCCCCN(CC(C)C)CC(C)C)c(CC=C(C)C)c2c1C(=O)CC(c1ccc(OCCCCCN(CC(C)C)CC(C)C)cc1)O2 (configuration not stated)

["> 1280 µg/mL", "> 1280 µg/mL"]

---

tested on: Staphylococcus aureus; experiment: Antibacterial activity against methicillin-resistant Staphylococcus aureus clinical isolate MRSA-14 measured after 16 to 18 hrs by CLSI method; type: functional; settings: time 16-18 hrs
Assignment: determine reported MIC for the given molecules.
Numbers only, in µg/mL.

Solved cases (6 shown):
- MOLECULE: "COc1cc(OCCCCCN2CCOCC2)c(CC=C(C)C)c2c1C(=O)CC(c1ccc(OCCCCCN3CCOCC3)cc1)O2 (stereo not given)"
  MEASURE_NAME: "MIC"
  RESULT: 16
- MOLECULE: "COc1cc(OCCCCN2CCCC(C)C2)c(CC=C(C)C)c2c1C(=O)CC(c1ccc(OCCCCN3CCCC(C)C3)cc1)O2 (stereo not given)"
  MEASURE_NAME: "MIC"
  RESULT: 8
- MOLECULE: "COc1cc(OCCCCN2CCC(C)CC2)c(CC=C(C)C)c2c1C(=O)CC(c1ccc(OCCCCN3CCC(C)CC3)cc1)O2 (stereo not given)"
  MEASURE_NAME: "MIC"
  RESULT: 16
- MOLECULE: "CCCN(CCC)CCCCCOc1ccc(C2CC(=O)c3c(OC)cc(OCCCCCN(CCC)CCC)c(CC=C(C)C)c3O2)cc1 (stereo not given)"
  MEASURE_NAME: "MIC"
  RESULT: 8
- MOLECULE: "COc1cc(OCCCCN2CCN(C)CC2)c(CC=C(C)C)c2c1C(=O)CC(c1ccc(OCCCCN3CCN(C)CC3)cc1)O2 (stereo not given)"
  MEASURE_NAME: "MIC"
  RESULT: 32
- MOLECULE: "COc1cc(OCCCCN2CCCCC2)c(CC=C(C)C)c2c1C(=O)CC(c1ccc(OCCCCN3CCCCC3)cc1)O2 (stereo not given)"
  MEASURE_NAME: "MIC"
  RESULT: 32

Below is a list of molecules. For each, state its recorded MIC.
1. CCCC[N+](C)(CCCC)CCCCCOc1ccc(C2CC(=O)c3c(OC)cc(OCCCCC[N+](C)(CCCC)CCCC)c(CC=C(C)C)c3O2)cc1.[I-].[I-] (stereo not given)
2. COc1cc(OCCCCCN2CCCC(C)C2)c(CC=C(C)C)c2c1C(=O)CC(c1ccc(OCCCCCN3CCCC(C)C3)cc1)O2 (stereo not given)
3. CCCCN(CCCC)CCCCOc1ccc(C2CC(=O)c3c(OC)cc(OCCCCN(CCCC)CCCC)c(CC=C(C)C)c3O2)cc1 (stereo not given)

1: 0.25; 2: 8; 3: 4

---

I'd be grateful if you could share measured log10 MIC for these entries.
tested on: Staphylococcus aureus; experiment: Antibacterial activity against methicillin-resistant Staphylococcus aureus clinical isolate MRSA-22 measured after 16 to 18 hrs by CLSI method; format: functional; settings: time 16-18 hrs
Plainly stated, the numbers are log10 of MIC given in µg/mL.

- MOLECULE: "COc1cc(OCCCCN2CCN(C)CC2)c(CC=C(C)C)c2c1C(=O)CC(c1ccc(OCCCCN3CCN(C)CC3)cc1)O2 (stereo not drawn)"
  log10 MIC: 1.51

Value sought for every listed molecule: log10 MIC.
1. COc1cc(OCCCCCN2CCCC(C)C2)c(CC=C(C)C)c2c1C(=O)CC(c1ccc(OCCCCCN3CCCC(C)C3)cc1)O2 (stereo not drawn)
2. COc1cc(OCCCCCN2CCCCC2C)c(CC=C(C)C)c2c1C(=O)CC(c1ccc(OCCCCCN3CCCCC3C)cc1)O2 (stereo not drawn)
3. COc1cc(OCCCCN2CCC(C)CC2)c(CC=C(C)C)c2c1C(=O)CC(c1ccc(OCCCCN3CCC(C)CC3)cc1)O2 (stereo not drawn)
4. COc1cc(OCCCCCN2CCOCC2)c(CC=C(C)C)c2c1C(=O)CC(c1ccc(OCCCCCN3CCOCC3)cc1)O2 (stereo not drawn)
5. COc1cc(OCCCCN2CCCCC2C)c(CC=C(C)C)c2c1C(=O)CC(c1ccc(OCCCCN3CCCCC3C)cc1)O2 (stereo not drawn)
6. COc1cc(OCCCN(CC(C)C)CC(C)C)c(CC=C(C)C)c2c1C(=O)CC(c1ccc(OCCCN(CC(C)C)CC(C)C)cc1)O2 (stereo not drawn)

1: 0.90; 2: 1.20; 3: 0.90; 4: 0.90; 5: 1.20; 6: 1.51

Hi team, please reply with log10 MIC for each item in this list.
1. CCCCN(CCCC)CCCCCOc1ccc(C2CC(=O)c3c(OC)cc(OCCCCCN(CCCC)CCCC)c(CC=C(C)C)c3O2)cc1 (stereo not drawn)
2. COc1cc(OCCCCCN2CCC(C)CC2)c(CC=C(C)C)c2c1C(=O)CC(c1ccc(OCCCCCN3CCC(C)CC3)cc1)O2 (stereo not drawn)
3. CCCCN(CCCC)CCCOc1ccc(C2CC(=O)c3c(OC)cc(OCCCN(CCCC)CCCC)c(CC=C(C)C)c3O2)cc1 (stereo not drawn)
4. COc1cc(OCCCN2CCN(C)CC2)c(CC=C(C)C)c2c1C(=O)CC(c1ccc(OCCCN3CCN(C)CC3)cc1)O2 (stereo not drawn)
5. COc1cc(OCCCCCN2CCN(C)CC2)c(CC=C(C)C)c2c1C(=O)CC(c1ccc(OCCCCCN3CCN(C)CC3)cc1)O2 (stereo not drawn)

1. 0.90
2. 0.90
3. 0.60
4. 1.51
5. 1.20

---

assay: Hemolytic activity in sheep erythrocytes incubated for 1 hr by absorbance based analysis; assay type: toxicity, cell-based, Ovis aries, Erythrocyte
MEASURE_NAME: HC50 at 1 h

// known answers, use as guide
- COMPOUND: "COc1cc(OCCCCCN2CCSCC2)c(CC=C(C)C)c2c1C(=O)CC(c1ccc(OCCCCCN3CCSCC3)cc1)O2 (stereo not drawn)"
  HC50 at 1 h: "> 640 µg/mL"
- COMPOUND: "COc1cc(OCCCCN2CCOCC2)c(CC=C(C)C)c2c1C(=O)CC(c1ccc(OCCCCN3CCOCC3)cc1)O2 (stereo not drawn)"
  HC50 at 1 h: "> 640 µg/mL"
- COMPOUND: "COc1cc(OCCCCN2CCC(C)CC2)c(CC=C(C)C)c2c1C(=O)CC(c1ccc(OCCCCN3CCC(C)CC3)cc1)O2 (stereo not drawn)"
  HC50 at 1 h: "> 640 µg/mL"
- COMPOUND: "COc1cc(OCCCCN2CCCCC2)c(CC=C(C)C)c2c1C(=O)CC(c1ccc(OCCCCN3CCCCC3)cc1)O2 (stereo not drawn)"
  HC50 at 1 h: "199 µg/mL"
- COMPOUND: "COc1cc(OCCCCN2CCN(C)CC2)c(CC=C(C)C)c2c1C(=O)CC(c1ccc(OCCCCN3CCN(C)CC3)cc1)O2 (stereo not drawn)"
  HC50 at 1 h: "> 1280 µg/mL"

Return reported HC50 at 1 h values for all items listed beneath this line.
1. COc1cc(O)c(CC=C(C)C)c2c1C(=O)CC(c1ccc(O)cc1)O2 (stereo not drawn)
2. CCCC[N+](C)(CCCC)CCCCOc1ccc(C2CC(=O)c3c(OC)cc(OCCCC[N+](C)(CCCC)CCCC)c(CC=C(C)C)c3O2)cc1.[I-].[I-] (stereo not drawn)
3. COc1cc(OCCCCCN2CCCCC2)c(CC=C(C)C)c2c1C(=O)CC(c1ccc(OCCCCCN3CCCCC3)cc1)O2 (stereo not drawn)

1: > 320 µg/mL; 2: > 1280 µg/mL; 3: 151 µg/mL
